Would you mind telling me the reported ka of each entry?
Target: T1, bacterially produced human IL-6 (Homo sapiens, UniProt P05231)
T1 construct: His
T1 sequence (P05231 30-212): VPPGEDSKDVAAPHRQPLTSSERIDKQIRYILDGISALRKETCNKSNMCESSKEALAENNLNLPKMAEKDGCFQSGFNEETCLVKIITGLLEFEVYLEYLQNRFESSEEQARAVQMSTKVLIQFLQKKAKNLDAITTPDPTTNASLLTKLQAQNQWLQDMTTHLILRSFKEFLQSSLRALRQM
Assay: Surface plasmon resonance (Biacore), bacterially produced human IL-6 coated on CM5 chip
Type: binding
Conditions: bact; periplasmic fractions, 29B11 chain shuffled
Protocol: The binding kinetics of IL-6-specific Fabs that were able to cross-compete with the B-E8 antibody was assessed using surface plasmon resonance (Biacore). […] From the washing phase the off-rate (kd) was determined, while from the injection phase the on-rate (ka) was calculated using the concentration and off-rate as parameters. […]

Request: Could you tell me which ka is on file for 55H1c: 29B11 chain shuffled Fab, periplasmic fraction (antibody, V domains shown) VH: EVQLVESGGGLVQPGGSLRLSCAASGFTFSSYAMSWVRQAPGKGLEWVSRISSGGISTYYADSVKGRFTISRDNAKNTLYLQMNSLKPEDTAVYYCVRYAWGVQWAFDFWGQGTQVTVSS VL: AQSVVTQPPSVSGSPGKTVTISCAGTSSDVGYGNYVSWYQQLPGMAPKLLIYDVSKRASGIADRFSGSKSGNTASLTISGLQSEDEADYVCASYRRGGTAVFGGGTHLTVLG ?
Response: 1.28e+06 M⁻¹ s⁻¹

Request: Next record, please: 29B11: antagonistic IL-6-specific Fab clone from immunized llama (antibody, listed as Lama glama, V domains shown) VH: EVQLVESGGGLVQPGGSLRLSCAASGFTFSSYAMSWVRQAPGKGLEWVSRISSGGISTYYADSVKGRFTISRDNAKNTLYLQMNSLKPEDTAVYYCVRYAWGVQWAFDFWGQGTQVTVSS VL: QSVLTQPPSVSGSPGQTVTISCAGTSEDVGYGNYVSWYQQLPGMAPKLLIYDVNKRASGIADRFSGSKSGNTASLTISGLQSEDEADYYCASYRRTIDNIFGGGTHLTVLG
Response: 251000 M⁻¹ s⁻¹

Request: Next record, please: 55C1a: 29B11 chain shuffled Fab, periplasmic fraction (antibody, V domains shown) VH: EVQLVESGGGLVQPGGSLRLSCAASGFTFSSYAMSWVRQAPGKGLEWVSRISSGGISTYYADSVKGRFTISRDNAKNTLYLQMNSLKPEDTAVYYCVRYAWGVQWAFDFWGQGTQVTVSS VL: ALNFMLTQPPSVSGSPGKTVTISCAGTSSDVGYGNYVSWYQQLPGTAPKLLIYNVNKRASGITDRFSGSKSGNTASLTISGLQSEDEADYYCASYRTGDNAAFGGGTKLTVLG
Response: 561000 M⁻¹ s⁻¹

Request: Next record, please: 55E2b: 29B11 chain shuffled Fab, periplasmic fraction (antibody, V domains shown) VH: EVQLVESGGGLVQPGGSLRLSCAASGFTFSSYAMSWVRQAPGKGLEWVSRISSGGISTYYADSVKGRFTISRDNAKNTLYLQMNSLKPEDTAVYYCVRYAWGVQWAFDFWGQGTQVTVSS VL: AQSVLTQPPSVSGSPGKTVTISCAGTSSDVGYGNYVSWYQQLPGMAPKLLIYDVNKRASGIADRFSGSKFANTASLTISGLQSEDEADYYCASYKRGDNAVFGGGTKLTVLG
Response: 489000 M⁻¹ s⁻¹
